- tested on: Casein kinase I isoform alpha (Homo sapiens); note: in the data inactive means no Kd found up to 30 µM
- Sequence (P48729 whole entry, canonical isoform): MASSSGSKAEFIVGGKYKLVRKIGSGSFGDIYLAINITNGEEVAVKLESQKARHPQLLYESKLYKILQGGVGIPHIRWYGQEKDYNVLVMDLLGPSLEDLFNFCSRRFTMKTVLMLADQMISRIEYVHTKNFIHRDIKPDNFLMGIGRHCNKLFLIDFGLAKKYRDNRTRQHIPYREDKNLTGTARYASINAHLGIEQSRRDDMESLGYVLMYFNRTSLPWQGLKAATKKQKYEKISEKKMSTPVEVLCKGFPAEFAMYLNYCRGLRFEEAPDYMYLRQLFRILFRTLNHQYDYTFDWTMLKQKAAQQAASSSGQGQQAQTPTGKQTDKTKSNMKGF
Active and inactive are the calls of the source.
Your answer must be one of the following: class 1 = active, class 0 = inactive

compound: COc1cccc(Nc2ncnn3ccc(CN4CC[C@@H](N)[C@H](O)C4)c23)c1
answer label: class 1

compound: Cn1c(=O)c(F)c(Nc2ccc(I)cc2F)c2c(=O)n(C[C@@H](O)CO)cnc21
answer label: class 0

Request: Outcome? CC1(COc2ccc3c(c2)ncn3-c2ccc3cccc(N4CCC(N)CC4)c3n2)COC1
Result: class 0

Request: Outcome? C=CC(=O)Nc1cc(Nc2nccc(-c3cn(C)c4ccccc34)n2)c(OC)cc1N(C)CCN(C)C
Result: class 0

Request: Outcome? O=C(O)c1ccc2c(c1)nc(Nc1cccc(Cl)c1)c1ccncc12
Result: class 0

Request: Outcome? C=CC(=O)Nc1cccc(Nc2nc(Nc3ccc(N4CCN(C(C)=O)CC4)cc3OC)ncc2C(F)(F)F)c1
Result: class 0

Request: Outcome? O=C(NC[C@H](O)CO)c1ccncc1Nc1ccc(I)cc1F
Result: class 0

Request: Outcome? O[C@H]1CC[C@H](Nc2ncc3nc(Nc4c(F)cc(F)cc4F)n([C@H]4CCOC4)c3n2)CC1
Result: class 0

Request: Outcome? CNC(=O)c1cccc(-c2ccc3c(N4CCOC[C@@H]4C)nc(N4CCOC[C@@H]4C)nc3n2)c1
Result: class 0

Request: Outcome? COc1cc2ncnc(Nc3ccc(F)c(Cl)c3)c2cc1NC(=O)/C=C/CN1CCCCC1 [DACOMITINIB ANHYDROUS]
Result: class 0

Request: Outcome? CCN1CCN(Cc2ccc(Nc3ncc(F)c(-c4cc(F)c5nc(C)n(C(C)C)c5c4)n3)nc2)CC1
Result: class 0

* * *

- tested on: Cyclin-dependent kinase 2 (Homo sapiens); note: in the data inactive means no Kd found up to 30 µM
Active and inactive are the calls of the source.
Your answer must be one of the following: class 1 for active, class 0 for inactive

Example cases with answers are listed next.
molecule: CC1(COc2ccc3c(c2)ncn3-c2ccc3cccc(N4CCC(N)CC4)c3n2)COC1
tested on: Cyclin-dependent kinase 2 (Homo sapiens); note: in the data inactive means no Kd found up to 30 µM
answer label: class 1

molecule: CC(C)(O)CC(=O)NCCn1ccc2ncnc(Nc3ccc(Oc4cccc(C(F)(F)F)c4)c(Cl)c3)c21
tested on: Cyclin-dependent kinase 2 (Homo sapiens); note: in the data inactive means no Kd found up to 30 µM
answer label: class 0

Request: Outcome? C=CC(=O)Nc1cc(Nc2nccc(-c3cn(C)c4ccccc34)n2)c(OC)cc1N(C)CCN(C)C
Result: class 0

Request: Outcome? C=CCN(/C=C1/C(=O)O[C@H](COC)[C@@]2(C)C1=C(O)C(=O)C1=C2[C@H](OC(C)=O)C[C@]2(C)C(=O)CC[C@@H]12)CC=C
Result: class 0

Request: Outcome? Cc1ccc(C(=O)Nc2ccc(Oc3cc4cnn(C)c4cc3-c3cn[nH]c3)c(F)c2)c(=O)n1-c1ccc(F)cc1
Result: class 0

Request: Outcome? NC(=O)c1ccc(N(C(N)=O)c2c(F)cccc2F)nc1-c1ccc(F)cc1F
Result: class 0

Request: Outcome? COc1cc2nccc(Oc3ccc(NC(=O)C4(C(=O)Nc5ccc(F)cc5)CC4)cc3)c2cc1OC [CABOZANTINIB]
Result: class 0

Request: Outcome? C[C@@H]1COC(Nc2ccc3ncnc(Nc4ccc(OCc5nccs5)c(Cl)c4)c3c2)=N1
Result: class 0

Request: Outcome? CC[C@@](C)(Nc1ccnc(-c2c[nH]c3ncccc23)n1)C(=O)NCC(F)(F)F
Result: class 0

Request: Outcome? O=C(O)c1ccc2c(c1)nc(Nc1cccc(Cl)c1)c1ccncc12
Result: class 1

* * *

- tested on: cAMP-dependent protein kinase catalytic subunit alpha (Homo sapiens, UniProt P17612); note: in the data inactive means no Kd found up to 30 µM
Activity calls are given as the source filed them.
Your answer must be one of the following: active, inactive

smiles string: CCOc1ccn(-c2ccc(F)cc2)c(=O)c1C(=O)Nc1ccc(Oc2ccnc(N)c2Cl)c(F)c1
tested on: cAMP-dependent protein kinase catalytic subunit alpha (Homo sapiens, UniProt P17612); note: in the data inactive means no Kd found up to 30 µM
answer label: inactive

smiles string: Cc1ccc(C(=O)Nc2ccc(Oc3cc4cnn(C)c4cc3-c3cn[nH]c3)c(F)c2)c(=O)n1-c1ccc(F)cc1
tested on: cAMP-dependent protein kinase catalytic subunit alpha (Homo sapiens, UniProt P17612); note: in the data inactive means no Kd found up to 30 µM
answer label: inactive

smiles string: S=C(NCc1ccc2c(c1)OCO2)N1CCN(c2ncnc3c2oc2ccccc23)CC1
tested on: cAMP-dependent protein kinase catalytic subunit alpha (Homo sapiens, UniProt P17612); note: in the data inactive means no Kd found up to 30 µM
answer label: inactive

smiles string: CN1CCN(c2nc(C3=C(c4c[nH]c5ccccc45)C(=O)NC3=O)c3ccccc3n2)CC1
tested on: cAMP-dependent protein kinase catalytic subunit alpha (Homo sapiens, UniProt P17612); note: in the data inactive means no Kd found up to 30 µM
answer label: inactive

smiles string: CCc1nc(C(N)=O)c(Nc2ccc(N3CCC(N4CCN(C)CC4)CC3)c(OC)c2)nc1NC1CCOCC1
tested on: cAMP-dependent protein kinase catalytic subunit alpha (Homo sapiens, UniProt P17612); note: in the data inactive means no Kd found up to 30 µM
answer label: inactive

smiles string: O=C(NOC[C@H](O)CO)c1ccc(F)c(F)c1Nc1ccc(I)cc1F
tested on: cAMP-dependent protein kinase catalytic subunit alpha (Homo sapiens, UniProt P17612); note: in the data inactive means no Kd found up to 30 µM
answer label: inactive

Request: Outcome? CC(C)(O)CC(=O)NCCn1ccc2ncnc(Nc3ccc(Oc4cccc(C(F)(F)F)c4)c(Cl)c3)c21
Result: inactive

Request: Outcome? C=CC(=O)Nc1cc(Nc2nccc(-c3cn(C)c4ccccc34)n2)c(OC)cc1N(C)CCN(C)C
Result: inactive

Request: Outcome? NC[C@@](O)(c1ccc(Cl)cc1)c1ccc(-c2cn[nH]c2)cc1
Result: active

Request: Outcome? CC1(COc2ccc3c(c2)ncn3-c2ccc3cccc(N4CCC(N)CC4)c3n2)COC1
Result: inactive

Request: Outcome? Cn1cc(-c2[nH]c3cc(NC(=O)[C@H](N)C4CCCCC4)cc4c3c2C=NNC4=O)cn1
Result: inactive

* * *

The source made the active and inactive calls.
Let's go through some Kd measurements on Tyrosine-protein kinase Fyn (Homo sapiens, UniProt P06241) together.
Sequence (P06241 whole entry): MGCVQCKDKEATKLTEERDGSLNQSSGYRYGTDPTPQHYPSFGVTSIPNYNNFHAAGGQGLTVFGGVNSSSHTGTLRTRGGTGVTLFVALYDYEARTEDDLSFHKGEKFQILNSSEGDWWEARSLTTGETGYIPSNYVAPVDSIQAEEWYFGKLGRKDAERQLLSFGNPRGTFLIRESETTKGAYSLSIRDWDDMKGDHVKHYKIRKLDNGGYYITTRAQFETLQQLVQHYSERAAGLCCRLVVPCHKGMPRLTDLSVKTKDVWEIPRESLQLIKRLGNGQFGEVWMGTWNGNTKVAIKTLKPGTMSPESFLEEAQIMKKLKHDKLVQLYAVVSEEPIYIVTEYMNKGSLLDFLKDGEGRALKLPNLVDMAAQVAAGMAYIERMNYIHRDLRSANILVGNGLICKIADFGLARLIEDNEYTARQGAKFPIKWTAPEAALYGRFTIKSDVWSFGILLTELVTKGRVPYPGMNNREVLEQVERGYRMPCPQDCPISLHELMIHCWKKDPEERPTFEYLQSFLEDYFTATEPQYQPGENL

smiles string: O=C(NC[C@H](O)CO)c1ccncc1Nc1ccc(I)cc1F
Kd: > 30 µM (inactive)

smiles string: Cn1c(=O)c(F)c(Nc2ccc(I)cc2F)c2c(=O)n(C[C@@H](O)CO)cnc21
Kd: > 30 µM (inactive)

Request: Tell me reported Kd for C=CC(=O)Nc1cc(Nc2nccc(-c3cn(C)c4ccccc34)n2)c(OC)cc1N(C)CCN(C)C , tested with Tyrosine-protein kinase Fyn (Homo sapiens, UniProt P06241).
Result: > 30 µM (inactive)

* * *

- tested on: Mitogen-activated protein kinase 8 (Homo sapiens, UniProt P45983); note: in the data inactive means no Kd found up to 30 µM
- Sequence (P45983 whole entry): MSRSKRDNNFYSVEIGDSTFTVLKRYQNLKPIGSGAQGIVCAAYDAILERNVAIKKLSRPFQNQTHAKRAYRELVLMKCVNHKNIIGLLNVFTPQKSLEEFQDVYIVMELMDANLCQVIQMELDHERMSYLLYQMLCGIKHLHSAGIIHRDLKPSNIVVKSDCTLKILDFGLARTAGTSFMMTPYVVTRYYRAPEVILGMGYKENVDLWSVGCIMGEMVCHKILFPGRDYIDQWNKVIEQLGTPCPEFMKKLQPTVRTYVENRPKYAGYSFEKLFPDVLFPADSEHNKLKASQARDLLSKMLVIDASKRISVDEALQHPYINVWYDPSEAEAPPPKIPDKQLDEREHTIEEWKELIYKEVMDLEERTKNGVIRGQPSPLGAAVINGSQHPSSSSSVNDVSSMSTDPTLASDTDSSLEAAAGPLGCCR
The source made the active and inactive calls.
Your answer must be one of the following: active, inactive

compound: c1cc(OCCN2CCCCC2)cc(-c2n[nH]c3ccc(-c4nc[nH]n4)cc23)c1 [CC-401]
answer label: active

Request: Outcome? C#Cc1cccc(Nc2ncnc3cc4c(cc23)OCCOCCOCCO4)c1 [ICOTINIB]
Result: inactive

* * *

- tested on: Protein kinase C delta type (Homo sapiens); note: in the data inactive means no Kd found up to 30 µM
- Sequence (Q05655 whole entry): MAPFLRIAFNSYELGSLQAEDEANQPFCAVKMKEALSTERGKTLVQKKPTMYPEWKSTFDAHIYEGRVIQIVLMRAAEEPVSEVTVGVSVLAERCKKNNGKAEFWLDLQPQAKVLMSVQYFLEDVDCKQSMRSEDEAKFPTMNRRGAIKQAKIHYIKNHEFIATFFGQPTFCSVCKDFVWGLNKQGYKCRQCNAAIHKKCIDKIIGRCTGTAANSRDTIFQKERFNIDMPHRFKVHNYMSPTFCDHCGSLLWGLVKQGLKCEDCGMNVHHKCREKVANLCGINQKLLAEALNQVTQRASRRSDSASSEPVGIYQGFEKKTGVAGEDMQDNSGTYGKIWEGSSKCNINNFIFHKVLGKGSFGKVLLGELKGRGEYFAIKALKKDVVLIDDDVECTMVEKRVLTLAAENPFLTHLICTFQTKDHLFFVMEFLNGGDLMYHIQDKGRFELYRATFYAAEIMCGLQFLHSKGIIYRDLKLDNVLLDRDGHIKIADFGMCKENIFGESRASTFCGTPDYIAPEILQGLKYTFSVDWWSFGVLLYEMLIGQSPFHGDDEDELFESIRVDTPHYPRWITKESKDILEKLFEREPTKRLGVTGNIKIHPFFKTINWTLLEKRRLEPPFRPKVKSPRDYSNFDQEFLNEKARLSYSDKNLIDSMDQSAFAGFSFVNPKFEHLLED
Active and inactive are the calls of the source.
Your answer must be one of the following: YES (active), NO (inactive)

compound: O=S(=O)(c1cccc2c(O)nccc12)N1CCCNCC1 [HYDROXYFASUDIL]
answer label: NO
--
compound: COc1ccc2c(OCc3nnc4ccc(-c5ccccc5)nn34)ccnc2c1
answer label: NO
--
compound: COc1cc2nccc(Oc3ccc(NC(=O)C4(C(=O)Nc5ccc(F)cc5)CC4)cc3)c2cc1OC [CABOZANTINIB]
answer label: NO
--
compound: CC(C)CC(=O)Nc1[nH]nc2c1CN(C(=O)C1CCN(C)CC1)C2(C)C
answer label: NO
--
compound: Cc1cc(-c2cc(OC(=O)c3ccccc3)ccc2Cl)cc2nnc(Nc3ccc(OCCN4CCCC4)cc3)nc12
answer label: NO
--
compound: COc1cc2ncnc3c2cc1OCCCCCN(C)Cc1ccc(Br)cc1N3
answer label: NO
--
compound: COc1cc2ncnc(Nc3ccc(F)c(Cl)c3)c2cc1NC(=O)/C=C/CN1CCCCC1 [DACOMITINIB ANHYDROUS]
answer label: NO
--
compound: C=CCN(/C=C1/C(=O)O[C@H](COC)[C@@]2(C)C1=C(O)C(=O)C1=C2[C@H](OC(C)=O)C[C@]2(C)C(=O)CC[C@@H]12)CC=C
answer label: NO

Request: Outcome? S=C(NCc1ccc2c(c1)OCO2)N1CCN(c2ncnc3c2oc2ccccc23)CC1
Result: NO

Request: Outcome? NC[C@@](O)(c1ccc(Cl)cc1)c1ccc(-c2cn[nH]c2)cc1
Result: YES

* * *

- tested on: UniProt:Q96GD4
- Sequence (Q96GD4 whole entry): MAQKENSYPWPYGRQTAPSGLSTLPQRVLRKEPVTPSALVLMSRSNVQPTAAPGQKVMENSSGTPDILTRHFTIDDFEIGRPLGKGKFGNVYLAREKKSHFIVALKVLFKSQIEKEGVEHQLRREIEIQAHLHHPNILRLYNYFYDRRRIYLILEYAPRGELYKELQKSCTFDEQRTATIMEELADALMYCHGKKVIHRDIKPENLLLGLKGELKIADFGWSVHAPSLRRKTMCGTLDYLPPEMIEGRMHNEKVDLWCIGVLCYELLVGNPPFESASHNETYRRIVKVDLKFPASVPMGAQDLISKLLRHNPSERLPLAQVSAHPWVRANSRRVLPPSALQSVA
Calls of active or inactive are those of the source.
Your answer must be one of the following: active, inactive

Example cases with answers are listed next.
compound: NC[C@@](O)(c1ccc(Cl)cc1)c1ccc(-c2cn[nH]c2)cc1 [AT-13148]
answer label: inactive

compound: O=S(=O)(c1cccc2c(O)nccc12)N1CCCNCC1 [HYDROXYFASUDIL]
answer label: inactive

compound: O=C(Nc1ccc(OC(F)(F)F)cc1)c1sccc1NCc1ccnc2ccccc12 [OSI-930]
answer label: inactive

compound: Cc1c(Cn2c(C)nc3c(C(=O)O)cc(N4CCOCC4)cc32)cccc1C(F)(F)F [GSK-2636771]
answer label: inactive

compound: Cc1c(NC(=O)OC[C@@H]2COCCN2)cn2ncnc(Nc3ccc4c(cnn4Cc4cccc(F)c4)c3)c12 [AC-480]
answer label: inactive

Request: Outcome? Cn1cc(-c2[nH]c3cc(NC(=O)[C@H](N)C4CCCCC4)cc4c3c2C=NNC4=O)cn1
Result: active

Request: Outcome? CCc1nc(C(N)=O)c(Nc2ccc(N3CCC(N4CCN(C)CC4)CC3)c(OC)c2)nc1NC1CCOCC1 [GILTERITINIB]
Result: inactive

Request: Outcome? O=C(NOC[C@H](O)CO)c1ccc(F)c(F)c1Nc1ccc(I)cc1F [MIRDAMETINIB]
Result: inactive

Request: Outcome? C=CCN(/C=C1/C(=O)O[C@H](COC)[C@@]2(C)C1=C(O)C(=O)C1=C2[C@H](OC(C)=O)C[C@]2(C)C(=O)CC[C@@H]12)CC=C [SONOLISIB]
Result: inactive

Request: Outcome? Cc1cc(Nc2nc(N[C@@H](C)c3ncc(F)cn3)ncc2Cl)n[nH]1 [AZD-1480]
Result: active

Request: Outcome? COCCN1CCN(Cc2ccc(-c3n[nH]c4c3C(=O)c3c(NC(=O)NN5CCOCC5)cccc3-4)cc2)CC1 [RGB-286638]
Result: inactive

Request: Outcome? CC(C)(O)CC(=O)NCCn1ccc2ncnc(Nc3ccc(Oc4cccc(C(F)(F)F)c4)c(Cl)c3)c21 [TAK-285]
Result: inactive

Request: Outcome? C[C@@H]1COC(Nc2ccc3ncnc(Nc4ccc(OCc5nccs5)c(Cl)c4)c3c2)=N1 [VARLITINIB]
Result: inactive
